- experimental.target: Ba/F3_KRAS^G12D cells (Homo sapiens, UniProt P01116, G12D, cells depend on it)
- Sequence (P01116 whole entry G12D): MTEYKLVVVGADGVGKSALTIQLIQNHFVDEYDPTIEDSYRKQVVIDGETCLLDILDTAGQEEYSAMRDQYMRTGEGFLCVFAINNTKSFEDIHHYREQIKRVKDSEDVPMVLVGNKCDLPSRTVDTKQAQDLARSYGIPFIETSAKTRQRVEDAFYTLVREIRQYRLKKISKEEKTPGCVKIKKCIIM
- protocol: Ba/F3 KRAS^G12D cell proliferation assay (cell-titer Glo)
- Type: cell-based
- reported.conditions: cell growth inhibition, treated with the compounds for 3 days, read-out: BaF3_KRAS^G12D IC50
assay.metric: GI50

In [3]: df
Out[3]:
                                   molecule                       experimental_target     result
0  Fc1cc2c(N3C4CCC3CNC4)nc(OCC34CCCN3CCC4)nc2nc1-c1cccc2cccc(Cl)c12 [Compound 9]  Ba/F3_KRAS^G12D cells (Homo sapiens, UniProt P01116, G12D, cells depend on it)  > 5000 nM
1  C#Cc1c(F)ccc2cc(O)cc(-c3nc(OCC)c4c(N5CC6CCC(C5)N6)nc(OC[C@@]56CCCN5C[C@H](F)C6)nc4c3F)c12 [Compound 141]  Ba/F3_KRAS^G12D cells (Homo sapiens, UniProt P01116, G12D, cells depend on it)   < 500 nM
2  C#Cc1c(F)ccc2cc(O)cc(-c3nc(OC)c4c(N5CC6CCC(C5)N6)nc(OC[C@@]56CCCN5C[C@H](F)C6)nc4c3F)c12 [Compound 135]  Ba/F3_KRAS^G12D cells (Homo sapiens, UniProt P01116, G12D, cells depend on it)   < 500 nM

Note: attention shifts to another entry.
Enquiry: Answer with the recorded GI50 for the molecule listed here: Fc1c(-c2cccc3cccc(Cl)c23)ncc2c(N3CCNCC3)cc(OCC34CCCN3CCC4)nc12 [Compound 67]
Return: 500 to 5000 nM

====

- experimental.target: Ba/F3_KRAS^G12D cells (Homo sapiens, UniProt P01116, G12D, cells depend on it)
- protocol: Ba/F3 KRAS^G12D cell proliferation assay (cell-titer Glo)
- Type: cell-based
- reported.conditions: cell growth inhibition, treated with the compounds for 3 days, read-out: BaF3_KRAS^G12D IC50
assay.metric: GI50

>>> print(df.to_string())
                            compound_string  assay_metric          result
0  CN1CCC[C@H]1Cn1c(=O)nc(N2CCNCC2)c2cc(F)c(-c3cccc4cccc(Cl)c34)nc21          GI50       > 5000 nM
1  C#Cc1cccc2cc(O)cc(-c3nc(C)c4c(N5CC6CCC(C5)N6)nc(OC[C@@]56CCCN5C[C@H](F)C6)nc4c3F)c12          GI50        < 500 nM
2  C#Cc1c(F)ccc2cc(O)cc(-c3ncc4c(N5CC6CCC(C5)N6)nc(OC[C@@]56CCCN5C[C@H](F)C6)nc4c3F)c12          GI50        < 500 nM
3  C#Cc1c(F)ccc2cccc(-c3nc(O)c4c(N5CC6CCC(C5)N6)nc(OC[C@@]56CCCN5C[C@H](F)C6)nc4c3F)c12          GI50  500 to 5000 nM
4  Clc1cc2c(N3CCNCC3)nc(OCC34CCCN3CCC4)nc2nc1-c1cccc2ccccc12          GI50       > 5000 nM
5  Cc1nc(-c2cc(C(F)F)cc3cccc(Cl)c23)c(F)c2nc(OC[C@@]34CCCN3C[C@H](F)C4)nc(N3CC4CCC(C3)N4)c12          GI50  500 to 5000 nM

Each compound below has a reported value. Please supply its GI50.
1. C#Cc1c(F)ccc2cc(O)cc(-c3nc(OC(C)C)c4c(N5CCNCC(F)(F)C5)nc(OC[C@@]56CCCN5C[C@H](F)C6)nc4c3F)c12
2. CN(C)CCCOc1cc2nc(-c3cccc4ccccc34)ncc2c(N2CC3CCC(C2)N3)n1
3. C#Cc1c(F)ccc2cc(O)cc(-c3nc(OC)c4c(N5CC6CCC(C5)N6)nc(OC)nc4c3F)c12
4. C#Cc1c(F)ccc2cc(O)cc(-c3nc(OC)c4c(N5CC6CCC(C5)N6)nc(OCC5(CN6CCN(C(=O)CCCCCCCCCCCCCCC)CC6)CC5)nc4c3F)c12
5. C#Cc1c(F)ccc2cc(O)cc(-c3nc(OC)c4c(N5CC6CCC(C5)N6)nc(OC[C@@H]5CCCN5C)nc4c3F)c12
6. C#Cc1c(F)ccc2cc(O)cc(-c3nc(OCC)c4c(N5CC6CCC(C5)N6)nc(OCC5(CN6CCOCC6)CC5)nc4c3F)c12
7. CN1CCC[C@@H]1COc1nc(-c2cccc3cccc(Cl)c23)c(F)c2nc(N3CCNCC3)ccc12

Return:
1: < 500 nM; 2: 500 to 5000 nM; 3: < 500 nM; 4: < 500 nM; 5: < 500 nM; 6: < 500 nM; 7: < 500 nM
